system: Saccharomyces cerevisiae BY4741 SeMeCo community; assay: z-score of subpopulation abundance vs DMSO median, subpopulation auxotrophic for LM; higher = larger share of this subpopulation than in DMSO controls; details: 10 µM; 24 h; SM minimal medium; subpopulation (auxotrophy): LM
Where a name gives a salt, the structure may show the parent alone.
Dear colleague, classification is by z-score of subpopulation abundance, with ranges listed here: class 1: < -0.2; class 2: ≥ -0.2 and < 0.4; class 3: ≥ 0.4

Lab note: sort CC1(C)S[C@@H]2[C@H](NC(=O)[C@H](N)c3ccccc3)C(=O)N2[C@H]1C(=O)OCOC(=O)[C@@H]1N2C(=O)C[C@H]2S(=O)(=O)C1(C)C [Sultamicillin] into the matching z-score of subpopulation abundance band.
class 2

Which class is correct for the following compound? OC1(c2ccc(Cl)c(C(F)(F)F)c2)CCN(CCCC(c2ccc(F)cc2)c2ccc(F)cc2)CC1 [Penfluridol]
class 3

Record OCCOc1ccc(/C(=C(/CCCl)c2ccccc2)c2ccccc2)cc1 [Ospemifene] — which class?
class 1

# bin lookup: classify CC/C=C(\C(=O)N[C@@H]1C(=O)N2C(C(=O)OCOC(=O)C(C)(C)C)=C(COC(N)=O)CS[C@H]12)c1csc(N)n1 [Cefcapene Pivoxil Hydrochloride] by its z-score of subpopulation abundance
class 3

State the class of the compound shown: Oc1cccc(O)c1 [Resorcinol]
class 1

Consider COc1ccc2c(c1)c(CC(=O)O)c(C)n2C(=O)c1ccc(Cl)cc1 [Indomethacin] . To which z-score of subpopulation abundance class does it belong?
class 2

Into which category would you place Cc1cc(/C=C/c2ccc3cc(N(C)C)ccc3[n+]2C)c(C)n1-c1ccccc1 [pyrvinium] ?
class 2

Which class is correct for the following compound? Oc1c(I)cc(Cl)c2cccnc12 [Clioquinol]
class 3

Others:
Input Cn1nnnc1SCC1=C(C(=O)O)N2C(=O)[C@@H](NC(=O)[C@H](OC=O)c3ccccc3)[C@H]2SC1 [Cefamandole nafate] ; output its category
class 3

# bin lookup: classify C#C[C@]1(O)CC[C@H]2[C@@H]3CCc4cc(OC)ccc4[C@H]3CC[C@@]21C [Mestranol] by its z-score of subpopulation abundance
class 2

Could you tell me which band COc1ccc2cc([C@H](C)C(=O)O)ccc2c1 [Naproxen Sodium] belongs to?
class 2

Which class does CCCCNC(=O)NS(=O)(=O)c1ccc(C)cc1 [Tolbutamide] fall in?
class 1

Could you place Cc1nc(Nc2ccc(F)cc2)nc(N2CCc3ccccc3C2C)c1C (centres undefined) [Revaprazan Hydrochloride] in its proper category? Many thanks.
class 2

Which bin should I file CC[C@H](C)C[C@H](C)CCCCCCCCC(=O)N[C@H]1C[C@@H](O)[C@@H](NCCN)NC(=O)[C@@H]2[C@@H](O)CCN2C(=O)[C@H]([C@H](O)CCN)NC(=O)[C@H]([C@H](O)[C@@H](O)c2ccc(O)cc2)NC(=O)[C@@H]2C[C@@H](O)CN2C(=O)[C@H]([C@@H](C)O)NC1=O [Caspofungin Acetate] under?
class 3

Lab note: sort CCCc1nn(C)c2c(=O)[nH]c(-c3cc(S(=O)(=O)N4CCN(C)CC4)ccc3OCC)nc12 [Sildenafil] into the matching z-score of subpopulation abundance band.
class 1

Sort CC[C@H](C)C(=O)O[C@H]1C[C@@H](C)C=C2C=C[C@H](C)[C@H](CC[C@@H]3C[C@@H](O)CC(=O)O3)[C@H]21 [Lovastatin] into one of the categories.
class 2

Lab note: sort Cc1cc(NS(=O)(=O)c2ccc(N)cc2)no1 [Sulfamethoxazole sodium] into the matching z-score of subpopulation abundance band.
class 1

Looking at N[C@@H]1CN(c2c(F)cc3c(=O)c(C(=O)O)cn([C@@H]4C[C@@H]4F)c3c2Cl)CC12CC2 [Sitafloxacin Hydrate] , which class would you pick?
class 3

Textbook exercise: identify the category of the compound given here, CC(C(O)c1ccc(O)cc1)N1CCC(Cc2ccccc2)CC1 (centres undefined) [Ifenprodil Tartrate] , according to its measured value.
class 1

Please let me know in which category the item CC(=O)O[C@H]1C[C@@]2(C)[C@@H](C[C@@H](O)[C@H]3[C@@]4(C)CC[C@@H](O)[C@@H](C)[C@@H]4CC[C@@]32C)/C1=C(\CCC=C(C)C)C(=O)O [Fusidate Sodium] belongs.
class 2

Exam item: assign CC1(C)S[C@@H]2[C@H](NC(=O)[C@H](N)c3ccccc3)C(=O)N2[C@H]1C(=O)OCOC(=O)[C@@H]1N2C(=O)C[C@H]2S(=O)(=O)C1(C)C [Sultamicillin Tosylate] to the correct category.
class 2
